These data points were gathered from paper PMC11131246.

- experiment-notes: Biodistribution of 67Ga-radiolabeled peptides
- Set-up: species or system mouse
- condition-set: female, CD1, mouse, in vivo, iv, 100 uCi, total radioactivity, Tissue distribution, Brain (brain uptake)
Residues, ends and D or L forms follow the SMILES beside them. *: point of attachment. NODAGA = O=C(O)CN1CCN(CC(=O)O)CCN(C(CCC(=O)*)C(=O)O)CC1
assay-readout: tissue uptake at 2 min (%ID/g)
Hi! Could you send only the number? It should be in %ID/g, unit omitted.

Request: Look up tissue uptake at 2 min for this molecule: CC(C)C[C@H](NC(=O)[C@H](Cc1c[nH]c2ccccc12)NC(=O)[C@H](Cc1ccccc1)NC(=O)[C@H](CCC(N)=O)NC(=O)[C@H](C)NC(=O)[C@H](CO)NC(=O)[C@H](CC(=O)O)NC(=O)[C@@H]1CCCN1C(=O)[C@H](CCCNC(=N)N)NC(=O)[C@H](CC(N)=O)NC(=O)CCC(C(=O)O)N1CCN(CC(=O)O)CCN(CC(=O)O)CC1)C(=O)N[C@@H](Cc1c[nH]cn1)C(=O)N[C@@H](Cc1c[nH]cn1)C(N)=O (stereo partly shown) [67Ga-BBBpS_9, metal not drawn] ({NODAGA}-NRPDSAQFWLHH-NH2)
Result: 0.61
